Below, each of the compounds is paired with its reported kobs/[I] value.
biological target: human lung tryptase; assay: Inactivation rate of human lung tryptase; format: biochemical; conditions: Table IX; pH 7.5, 25° C; [I] 0.42-0.47 μM

Take a look at these entries with their results.
LINE_NOTATION: N=C(N)SCCOc1oc(=O)c2cc(NC(=O)NCc3ccccc3)ccc2c1Cl
kobs/[I]: 280,000 M^-1 s^-1
--
LINE_NOTATION: N=C(N)SCCOc1oc(=O)c2cc(NC(=O)Cc3ccccc3)ccc2c1Cl
kobs/[I]: 110,000 M^-1 s^-1

Please report the recorded kobs/[I] for N=C(N)SCCOc1oc(=O)c2cc(NC(=O)Nc3ccccc3)ccc2c1Cl . 170,000 M^-1 s^-1

Please report the recorded kobs/[I] for CC(C)(C)OC(=O)N[C@@H](Cc1ccccc1)C(=O)Nc1ccc2c(Cl)c(OCCCSC(=N)N)oc(=O)c2c1 . 170,000 M^-1 s^-1
